Cited source for all entries: paper PMC12524618

# Test Target: Saccharomyces cerevisiae dihydroorotase (DHOase) (Saccharomyces cerevisiae, UniProt P20051)
# Construct: gene URA4
# Sequence (P20051 1-364): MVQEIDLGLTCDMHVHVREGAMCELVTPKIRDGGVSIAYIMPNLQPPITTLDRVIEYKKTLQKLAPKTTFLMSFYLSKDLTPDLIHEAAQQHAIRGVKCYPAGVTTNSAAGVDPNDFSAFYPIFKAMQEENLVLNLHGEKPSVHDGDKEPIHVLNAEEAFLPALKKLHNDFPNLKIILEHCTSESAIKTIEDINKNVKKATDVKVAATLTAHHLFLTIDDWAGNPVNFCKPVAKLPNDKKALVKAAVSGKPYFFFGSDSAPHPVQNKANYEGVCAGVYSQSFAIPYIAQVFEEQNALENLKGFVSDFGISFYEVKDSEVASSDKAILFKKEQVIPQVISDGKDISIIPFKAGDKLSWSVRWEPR
# Assay: spectrophotometric assay of dihydroorotate hydrolysis at […] nm with purified recombinant enzyme
# Format: biochemical
Readout Name: IC50 (µM)
# value in µM; strip the unit string

Need IC50 of O=c1c(O)c(-c2cc(O)c(O)c(O)c2)oc2cc(O)cc(O)c12 , thanks.
12.5
